The reported numbers originate from patent US11891365B2.

Target: Full length human recombinant HDAC6 protein (Homo sapiens)
Sequence (Q9UBN7 1-1215): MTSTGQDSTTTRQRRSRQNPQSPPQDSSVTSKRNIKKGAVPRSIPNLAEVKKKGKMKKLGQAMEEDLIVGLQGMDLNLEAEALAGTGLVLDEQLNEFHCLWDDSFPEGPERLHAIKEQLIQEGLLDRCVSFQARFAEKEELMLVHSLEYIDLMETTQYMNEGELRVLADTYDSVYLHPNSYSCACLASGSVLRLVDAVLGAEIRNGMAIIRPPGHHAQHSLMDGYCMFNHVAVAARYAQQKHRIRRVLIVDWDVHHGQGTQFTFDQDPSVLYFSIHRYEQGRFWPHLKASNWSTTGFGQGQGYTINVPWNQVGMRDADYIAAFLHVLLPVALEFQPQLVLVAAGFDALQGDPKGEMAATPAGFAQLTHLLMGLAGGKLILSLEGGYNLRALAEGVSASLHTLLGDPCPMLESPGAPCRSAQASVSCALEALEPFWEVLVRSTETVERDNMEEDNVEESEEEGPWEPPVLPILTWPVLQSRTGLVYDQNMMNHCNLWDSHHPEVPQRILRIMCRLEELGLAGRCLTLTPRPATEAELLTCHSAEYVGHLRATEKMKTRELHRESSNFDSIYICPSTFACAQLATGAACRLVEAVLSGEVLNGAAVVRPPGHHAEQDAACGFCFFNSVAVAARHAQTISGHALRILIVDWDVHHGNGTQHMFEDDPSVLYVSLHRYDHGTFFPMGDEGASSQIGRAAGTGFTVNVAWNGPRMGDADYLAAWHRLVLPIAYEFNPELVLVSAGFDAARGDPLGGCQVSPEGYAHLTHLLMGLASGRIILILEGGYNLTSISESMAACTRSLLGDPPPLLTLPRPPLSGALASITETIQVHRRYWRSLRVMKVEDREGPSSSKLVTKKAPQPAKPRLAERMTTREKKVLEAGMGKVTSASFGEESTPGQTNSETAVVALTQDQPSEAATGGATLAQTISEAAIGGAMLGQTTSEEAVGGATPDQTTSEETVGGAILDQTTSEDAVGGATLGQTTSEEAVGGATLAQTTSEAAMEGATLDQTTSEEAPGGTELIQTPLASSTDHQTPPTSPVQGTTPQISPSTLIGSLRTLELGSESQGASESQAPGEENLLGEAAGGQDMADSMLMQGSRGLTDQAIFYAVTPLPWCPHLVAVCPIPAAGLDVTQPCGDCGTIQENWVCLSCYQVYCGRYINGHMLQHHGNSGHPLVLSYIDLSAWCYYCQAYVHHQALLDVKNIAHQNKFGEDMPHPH
Experiment: In vitro histone deacetylase assay: enzymatic HDAC6 electrophoretic mobility shift assay
Settings: 1 nM enzyme, 2 μM peptide substrate RHKK(Ac)-NH2, 25° C., 12 concentrations; read-out: Inhibitory Concentration (IC50) Values against HDAC6, Activity Range
OBSERVABLE: IC50

C[C@H]1COc2cc(C(=O)NO)ccc2CN1C(=O)C1CS(=O)(=O)C1	≤ 100 nM

Problem: Need IC50, item O=C(NO)c1ccc2c(c1)O[C@@H]1C[C@H]2N(C(=O)C2CCOCC2)C1
Result: 100 to 500 nM

Problem: Need IC50, item COc1ccc(CC(C(=O)N2CCOc3cc(C(=O)NO)ccc3C2)c2ccccc2)cc1 (stereo not shown)
Result: 100 to 500 nM

Problem: Need IC50, item O=CN1Cc2ccc(C(=O)NO)cc2O[C@@H](c2ccccc2)C1
Result: ≤ 100 nM

Problem: Need IC50, item C[C@H]1COc2cc(C(=O)NO)ccc2CN1C(=O)[C@@H]1CCCOC1
Result: ≤ 100 nM

Problem: Need IC50, item C[C@H]1COc2cc(C(=O)NO)ccc2CN1C(=O)c1nc2ccccc2[nH]1
Result: ≤ 100 nM
